Listed next: entries and their corresponding IC50.
Biological target: mushroom tyrosinase (Agaricus bisporus, UniProt C7FF04)
Sequence (C7FF04 1-392 limits assumed): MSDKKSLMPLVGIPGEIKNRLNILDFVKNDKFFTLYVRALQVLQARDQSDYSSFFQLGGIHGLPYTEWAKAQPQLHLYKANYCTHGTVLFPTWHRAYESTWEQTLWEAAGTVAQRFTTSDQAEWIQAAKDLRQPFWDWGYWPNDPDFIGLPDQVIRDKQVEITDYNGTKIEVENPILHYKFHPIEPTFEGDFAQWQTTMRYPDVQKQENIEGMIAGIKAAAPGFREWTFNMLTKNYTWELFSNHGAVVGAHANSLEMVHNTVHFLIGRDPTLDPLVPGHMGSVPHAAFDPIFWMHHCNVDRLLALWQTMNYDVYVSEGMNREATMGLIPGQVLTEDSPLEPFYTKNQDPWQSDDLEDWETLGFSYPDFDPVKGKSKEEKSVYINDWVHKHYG
Assay: Tyrosinase inhibition assay (L-DOPA to dopachrome, absorbance at 450 nm)
Assay type: biochemical
Settings: Table 2, synthetic diarylalkanes and/or diarylalkanols; read-out: Tyrosinase Inhibition (IC50)

compound | assayed.target | IC50
COc1ccc(C(O)CCc2ccc3c(c2)OCCCCO3)c(O)c1 (stereo not drawn) | mushroom tyrosinase (Agaricus bisporus, UniProt C7FF04) | 72 µM
COc1ccc(C(O)CCc2ncc(Cl)n2C)c(O)c1 (stereo not drawn) | mushroom tyrosinase (Agaricus bisporus, UniProt C7FF04) | 225 µM
COc1ccc(O)c(C(O)CCc2ccc(OC)c(OC)c2)c1 (stereo not drawn) | mushroom tyrosinase (Agaricus bisporus, UniProt C7FF04) | 30 µM
